These entries and their values trace back to patent US20240165282A1.

- study.target: human cloned somatostatin receptor 1 (human) (UniProt P30872)
- Sequence (P30872 whole entry): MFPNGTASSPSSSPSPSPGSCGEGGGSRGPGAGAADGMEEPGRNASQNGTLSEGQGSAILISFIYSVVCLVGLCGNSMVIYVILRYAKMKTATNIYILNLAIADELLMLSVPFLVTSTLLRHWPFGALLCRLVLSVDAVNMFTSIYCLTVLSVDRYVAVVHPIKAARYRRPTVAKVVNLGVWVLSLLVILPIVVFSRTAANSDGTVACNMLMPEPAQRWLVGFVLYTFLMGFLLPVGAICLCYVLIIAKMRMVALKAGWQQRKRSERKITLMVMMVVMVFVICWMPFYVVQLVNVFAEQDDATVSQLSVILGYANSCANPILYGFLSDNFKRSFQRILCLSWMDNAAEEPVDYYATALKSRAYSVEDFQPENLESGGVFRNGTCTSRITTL
- assay.overview: 125I-Tyr11-SRIF-14 displacement
*1 amine or outer side, *2 acyl side, *3 side chain or, on linkers, in order; H or OH if unused. Bridges are numbered along the chain shown (N, C = ends). [ ]: non-standard residue; d: D form. The star is where a group is joined. DOTA = O=C(O)CN1CCN(CC(=O)O)CCN(CC(=O)*)CCN(CC(=O)O)CC1; N(2-mercaptoethyl)Gly = O=C(CN(CCS[*:3])[*:1])[*:2]; 4Amb = NCc1ccc(C(=O)O)cc1; Orn = NCCC[C@H](N)C(=O)O
readout.type: % displacement at 1 nM (%)
Please respond with the number in % and leave the unit unwritten.

Exercise: Please supply the value of reported % displacement at 1 nM for the item {DOTA-4Amb}-[dF]RCF[dW]KTF[N(2-mercaptoethyl)Gly]-NH2 (disulfide 3-9) [SEQ ID NO: 18]
Solution: 0

Exercise: Please report the measured % displacement at 1 nM for {DOTA}-[dF]E[Orn]CF[dW]KTF[N(2-mercaptoethyl)Gly]-NH2 (disulfide 4-10; SMILES C[C@@H](O)[C@@H]1NC(=O)[C@H](CCCCN)NC(=O)[C@@H](Cc2c[nH]c3ccccc23)NC(=O)[C@H](Cc2ccccc2)NC(=O)[C@@H](NC(=O)[C@H](CCCN)NC(=O)[C@H](CCC(=O)O)NC(=O)[C@@H](Cc2ccccc2)NC(=O)CN2CCN(CC(=O)O)CCN(CC(=O)O)CCN(CC(=O)O)CC2)CSSCCN(CC(N)=O)C(=O)[C@H](Cc2ccccc2)NC1=O) [SEQ ID NO: 23]
Solution: 4

Exercise: Specify reported % displacement at 1 nM for the binder shown: {DOTA}-F[dF]RCF[dW]KTF[N(2-mercaptoethyl)Gly]-NH2 (disulfide 4-10; SMILES C[C@@H](O)[C@@H]1NC(=O)[C@H](CCCCN)NC(=O)[C@@H](Cc2c[nH]c3ccccc23)NC(=O)[C@H](Cc2ccccc2)NC(=O)[C@@H](NC(=O)[C@H](CCCNC(=N)N)NC(=O)[C@@H](Cc2ccccc2)NC(=O)[C@H](Cc2ccccc2)NC(=O)CN2CCN(CC(=O)O)CCN(CC(=O)O)CCN(CC(=O)O)CC2)CSSCCN(CC(N)=O)C(=O)[C@H](Cc2ccccc2)NC1=O) [SEQ ID NO: 20]
Solution: 8
